Consider the following molecules; for each one, report its TGI.
system: UO-31 renal; experiment: NCI tumour cell line growth inhibition, 48 h
Just the number in µM, nothing appended.

Lab note: need TGI with UO-31 renal for entry `C=C1C(=O)O[C@H]2[C@H]1CC/C(COC(=O)NCc1ccc(Cn3c(=O)sn(-c4ccc(OC)cc4)c3=O)cc1)=C\CC[C@@]1(C)O[C@@H]21` , please look it up. 2.94

# query: TGI | item `CN(C)CCn1c2c3ccccc3ccc2c2oc(=O)c3ccccc3c21` | system: UO-31 renal 8.94

Return TGI measured with UO-31 renal given this molecule: `O=C1CCCCN1c1ccccc1C#C/C=C\C#Cc1ccccc1C(F)(F)F` 13.6

Item CCCCCC[C@@H]1CCC2C(CO)[C@@H](O)CC[C@@H]2C1 (stereo not given in full) with UO-31 renal - TGI? 38.7
